# credit: a melting point compilation (Tetko et al.)

Each entry below carries its recorded melting point.

Use the examples below as a reference point.
CC(C)(CCl)C(=O)O ... 41.5 °C
CN(C)CCOC1=Cc2ccccc2Sc2ccc(Cl)cc21 ... 90 °C
O=C(O)c1ccc(Sc2ccc(Cl)cc2)c([N+](=O)[O-])c1 ... 217 to 220 °C

[in] I'd like to know its melting point. The molecule in question is `CCCCCCCCCCC(=O)OCC(COC(=O)CCCCCCCCCC)OC(=O)CCCCCCCCCC`
[out] 24 to 32 °C

[in] // query: `Oc1ccccc1N1CCNCC1`
[out] 125 °C

[in] What do you have for `O=[N+]([O-])c1c(Cl)cc(Cl)cc1C(Cl)Cl` ?
[out] 45 °C

[in] Same read-out for `O=C(O)[C@H]1NCC[C@@H]1c1ccccc1` ?
[out] 234 to 236 °C

[in] Subsequent entry: `COc1cc(C=C2SC(=S)N(CNc3cccc([N+](=O)[O-])c3)C2=O)ccc1O`
[out] 214 to 215 °C

[in] Let us now turn to NC(CSCc1ccccc1)C(=O)Nc1ccc([N+](=O)[O-])cc1 (stereo not drawn)
[out] 100 to 102 °C

[in] Also check `O=C(O)CN1CCOCCOCCN(CC(=O)O)CCOCCOCC1`
[out] 173 to 175 °C

[in] Input C[C@]12CCC(=O)CC1CCC1=C2CC[C@]2(C)C(=O)CC[C@@H]12 (stereo partly drawn)
[out] 148 °C

[in] Same again, this time with `CCOC(=O)c1cc(C)n(-c2cc(C)[nH]n2)n1`
[out] 120 to 122 °C

[in] And what about the molecule `O=C(O)c1ccc(Oc2ccccn2)cc1` ?
[out] 174 to 175 °C
